PROCEDURE TEXT: in vivo
APPLIED CONDITIONS: rat
REPORTED METRIC: log10 of half-life (log10 of the value in h)

[
  {
    "COMPOUND SMILES": "CC[C@H](C)[C@H](C(=O)O)N1C[C@H](CN2CCC(c3cc(Cc4ccc(OC5CCC5)cc4)nn3CC)CC2)[C@@H](c2cccc(F)c2)C1",
    "MEASURED VALUE": 0.08
  },
  {
    "COMPOUND SMILES": "CC[C@H](C)[C@H](C(=O)O)N1C[C@H](CN2CCC(c3cc(Cc4ccc(C(C)(C)C)cc4)nn3CC)CC2)[C@@H](c2cccc(F)c2)C1",
    "MEASURED VALUE": 0.15
  },
  {
    "COMPOUND SMILES": "CCn1nc(Cc2ccc(-c3ccccc3)cc2)cc1C1CCN(C[C@H]2CN([C@@H](C(=O)O)C(C)C)C[C@@H]2c2cccc(F)c2)CC1",
    "MEASURED VALUE": 0.76
  },
  {
    "COMPOUND SMILES": "CCn1nc(Cc2ccc(-c3ccccc3)cc2)cc1C1CCN(C[C@H]2CN([C@@H](C(=O)O)C3CCCCC3)C[C@@H]2c2cccc(F)c2)CC1",
    "MEASURED VALUE": 0.11
  },
  {
    "COMPOUND SMILES": "CCn1nc(Cc2ccc(F)cc2)cc1C1CCN(C[C@H]2CN([C@@H](C(=O)O)C(C)C)C[C@@H]2c2cccc(F)c2)CC1",
    "MEASURED VALUE": -0.04
  },
  {
    "COMPOUND SMILES": "CCn1nc(Cc2ccc(S(C)(=O)=O)cc2)cc1C1CCN(C[C@H]2CN([C@@H](C(=O)O)C(C)C)C[C@@H]2c2cccc(F)c2)CC1",
    "MEASURED VALUE": -0.42
  },
  {
    "COMPOUND SMILES": "CCOc1ccc(Cc2cc(C3CCN(C[C@H]4CN([C@@H](C(=O)O)C(C)(C)C)C[C@@H]4c4cccc(F)c4)CC3)n(CC)n2)cc1",
    "MEASURED VALUE": 0.15
  },
  {
    "COMPOUND SMILES": "CCOc1ccc(Cc2cc(C3CCN(C[C@H]4CN([C@@H](C(=O)O)[C@@H](C)CC)C[C@@H]4c4cccc(F)c4)CC3)n(CC)n2)cc1",
    "MEASURED VALUE": -0.01
  },
  {
    "COMPOUND SMILES": "CCCCOc1ccc(Cc2cc(C3CCN(C[C@H]4CN([C@@H](C(=O)O)[C@@H](C)CC)C[C@@H]4c4cccc(F)c4)CC3)n(CC)n2)cc1",
    "MEASURED VALUE": 0.08
  },
  {
    "COMPOUND SMILES": "CC[C@@H](C)[C@H](C(=O)O)N1C[C@H](CN2CCC(c3cc(Cc4ccc(OC5CCC5)cc4)nn3CC)CC2)[C@@H](c2cccc(F)c2)C1",
    "MEASURED VALUE": 0.32
  },
  {
    "COMPOUND SMILES": "CCn1nc(Cc2ccc(OC)c(OC)c2)cc1C1CCN(C[C@H]2CN([C@@H](C(=O)O)C(C)(C)C)C[C@@H]2c2cccc(F)c2)CC1",
    "MEASURED VALUE": 0.04
  },
  {
    "COMPOUND SMILES": "CC[C@H](C)[C@H](C(=O)O)N1C[C@H](CN2CCC(c3cc(Cc4ccc(OC5CC5)cc4)nn3CC)CC2)[C@@H](c2cccc(F)c2)C1",
    "MEASURED VALUE": 0.00
  },
  {
    "COMPOUND SMILES": "CCn1nc(Cc2ccc(OC3CCC3)cc2)cc1C1CCN(C[C@H]2CN([C@@H](C(=O)O)C(C)(C)C)C[C@@H]2c2cccc(F)c2)CC1",
    "MEASURED VALUE": 0.54
  }
]

// provenance: ChEMBL document CHEMBL1147446
